target: human NKp30 (human) (UniProt O14931); experiment: BLI, immunoligand on anti-hFc tip
Sequence (O14931 19-135 limits assumed): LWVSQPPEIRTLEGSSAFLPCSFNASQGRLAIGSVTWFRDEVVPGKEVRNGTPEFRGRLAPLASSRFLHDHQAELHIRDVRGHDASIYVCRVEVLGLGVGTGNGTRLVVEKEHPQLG
pKd: −log10 of the molar value.

Binder	pKd
ΔB7-H6_S3#32-SEED-PGLALA (bispecific antibody, part only; not given: SEED Fc chains and hu225 EGFR Fab, part only) chain, part: DLKVEMMAGGTQITPLNDNVTIFCNIFYSQPLNITEMGITWFWKSLTFDKEVKVFEFWGDHQEAFRPGAIVSPWRLKSGDASLRLPGIQLEEAGEYRCEVVVTPVKAQGTVQLEVVASPAS	6.73
ΔB7-H6_S3#14-SEED-PGLALA (bispecific antibody, part only; not given: SEED Fc chains and hu225 Fab, part only) chain, part: DLKVEMMAGGTQITPLNDNVTIFCNIFYSQPLNITTMGITWFWKSLTFDKEVKVFEFYGDHQEAFRPGAIVSPWRLKSGDASLRLPGIQLEEAGEYRCEVVVTPYKAQGTVQLEVVASPAS	7.46
